System: ACHN
Method description: NCI tumour cell line growth inhibition, 48 h
Calls of active or inactive are those of the source. No stated cut-off is given here; in the data, active = GI50 up to about 1.1 µM and inactive = higher.
Hi! Could you answer with just one of these? yes (1) for active, no (0) for inactive

Example results:
O=C(O)CCNCC(=O)O ... no (0)
CS[C@]12C(=O)C[C@@]3(C)[C@@H](CC[C@]3(O)C(=O)CO)[C@@H]1CCC1=CC(=O)CC[C@@]12C ... no (0)
Cc1cccc(NC(=O)c2cccc([N+](=O)[O-])c2O)c1C ... no (0)
CC(=O)/C=C/CCC(=O)/C=C/C(=O)OC(CCC(=O)/C=C/C(=O)O)CC(C)=O (centres undefined) ... no (0)
c1ccc2c(-c3csc(-c4c[nH]c5ccccc45)n3)c[nH]c2c1 ... no (0)
CSC1(CC(=O)N(C)C)C(=O)Nc2ccccc21 (centres undefined) ... no (0)
O=C1CC[C@@H](S(=O)(=O)c2ccccc2)[C@H](/C=C/c2ccccc2)O1 ... no (0)
CCOC(=O)CC(=O)ON(C)C(C)=O ... no (0)
Clc1ccccc1NN(Cc1ccccn1)c1ccccc1Cl ... no (0)
COc1cc2ccc(CC#N)cc2cc1OC ... no (0)

Shift focus to the following entry.
Data request: Which outcome did this test record for the compound "CCN1CCN(c2nc3ccccc3nc2C(=O)c2ccc(OC)cc2)CC1" ?
Data returned: no (0)

* * *

Test system: SF-295
Method description: NCI tumour cell line growth inhibition, 48 h
Activity calls are given as the source filed them. Cut-off read from the data, not from the text of the source: active = GI50 up to about 1.1 µM and inactive = higher.
Hi! Could you answer with just one of these? t for active, f for inactive

Example results:
COC(=O)[C@]12CCC(C)(C)C[C@H]1C1=CC[C@@H]3[C@@]4(C)CC[C@H](OC5OC(CO)C(O)C(O)C5OC5OC(CO)C(O)C(O)C5O)C(C)(C)[C@@H]4CC[C@@]3(C)[C@]1(C)CC2 (some centres undefined) ... f
Cc1ccc(C)c(NC(=O)CCc2n[nH]c(=S)o2)c1 ... f
Nc1nc(N)c2nc(CNc3ccc(C(=O)NC(CCCCNC(=O)c4ccccc4C(=O)O)C(=O)O)cc3)cnc2n1 (centres undefined) ... t

Shift focus to the following entry.
Data request: Which outcome did this test record for the molecule CCOC(=O)C1(C)CCC(C(C(=O)O)C(=O)O)CC1=O (centres undefined) ?
Data returned: f

* * *

Test system: IGROV-1
Method description: NCI tumour cell line growth inhibition, 48 h
Calls of active or inactive are those of the source. No stated cut-off is given here; in the data, active = GI50 up to about 1.1 µM and inactive = higher.
Observation type: GI50

// each listed compound needs a value for GI50
1. O=C1NCCCNCCCNCCCNC(=O)c2cccc1n2
2. CC(C)CCC1(CCN)C(=O)NC(=O)NC1=O
3. CN(C)CCS/C(=N\c1ccccc1)N1C=COC=C1
4. CSc1cc(Cl)c(C)cc1S(=O)(=O)NC(=O)NNc1ccc(F)cc1
5. CN(C)C(=O)CC(C(=O)O)c1c[nH]c2ccccc12 (stereo not given)

Data returned:
1. > 100 µM (inactive)
2. > 100 µM (inactive)
3. 18 µM (inactive)
4. > 100 µM (inactive)
5. > 100 µM (inactive)

* * *

Tested on: OVCAR-4
Method description: NCI tumour cell line growth inhibition, 48 h
Active and inactive are the calls of the source. Cut-off read from the data, not from the text of the source: active = GI50 up to about 1.1 µM and inactive = higher. Non-standard residues stand in square brackets, D forms with d. Residues, ends and D or L forms follow the SMILES beside them. ξ: configuration not given here. *: point of attachment. dThr(3ξ) = CC(O)[C@@H](N)C(=O)O; dNMeL = CN[C@H](CC(C)C)C(=O)O; OBn = c1ccc(CO*)cc1; ξLac = CC(O)C(=O)O
Observation type: GI50

Use these answered entries as a reference point.
COc1cc(/C=C2\C[C@H]3[C@@H]4CC=C5C[C@@H](O)CC[C@]5(C)[C@H]4CC[C@]3(C)C2=O)cc(OC)c1OC ... 39.4 µM (inactive)
NN ... 625 µM (inactive)
CCCCCc1cc2c(cc1O)CC[C@@H]1[C@@H]2CC[C@]2(C)[C@@H](O)CC[C@@H]12 ... 21.6 µM (inactive)

// each listed molecule needs a value for GI50
1. COc1ccc(C(C)Nc2cc(OC)c(OC)c(OC)c2)cc1 (centres undefined)
2. CC(=O)OC(C)[C@@H](NC(=O)[C@@H](CC(C)C)N(C)C(=O)[C@@H]1CCCN1C(=O)C(C)O)C(=O)OCc1ccccc1 (some centres undefined) (H-[ξLac]P[dNMeL][dThr(3ξ)](Ac)-OBn)
3. Cc1ccc2c(c1)CC1(Cc3ccccc3C1=O)C2=O (centres undefined)

Data returned:
6.43 µM (inactive)
62.4 µM (inactive)
> 100 µM (inactive)

* * *

Test system: K562
Method description: NCI tumour cell line growth inhibition, 48 h
Activity calls are given as the source filed them. Cut-off read from the data, not from the text of the source: active = GI50 up to about 1.1 µM and inactive = higher.
Hi! Could you answer with just one of these? active, inactive

Example results:
CCCCC(=O)Nc1ccc2cc(C(=O)OC)c(Cl)nc2n1 ... inactive
COc1cc([C@@H]2c3cc4c(cc3[C@@H](Nc3ccc([N+](=O)[O-])cc3C(=O)c3ccccc3)[C@H]3COC(=O)[C@H]23)OCO4)cc(OC)c1OC ... active

Data request: Which outcome did this test record for the compound "CC[n+]1[b-](C(C)(C)C)n(/N=C/C(C)(C)C)[b-](C(C)(C)C)[n+]1CC" ?
Data returned: inactive

Data request: Next entry: "[N-]=[N+]=Nc1cc(=O)n(-c2ccccc2)c2ccccc12"
Data returned: inactive

Data request: Next entry: "COc1cccc2c1[C@H](OC)[C@]13O[C@@]1(C2=O)[C@H](O)[C@H](C)[C@@](O)(C(=O)[C@@H]1O[C@H]1C)[C@@H]3O"
Data returned: active

* * *

Test system: HOP-92
Method description: NCI tumour cell line growth inhibition, 48 h
Active and inactive are the calls of the source. Rule as the data show it: active = GI50 up to about 1.1 µM and inactive = higher.
Hi! Could you answer with just one of these? true (active), false (inactive)

C=CCNC(=S)N/N=C1\C(=O)N(CN2CCOCC2)c2ccc([N+](=O)[O-])cc21 ... false
CN(C)c1n/c(=N/Cc2ccccc2)ss1 ... false

Data request: Which outcome did this test record for the compound CC(=O)Nc1ccc(C(=O)NN2C(=O)CSC2c2ccc(O)cc2)cc1 (stereo unspecified) ?
Data returned: false

Data request: Next entry: CC(=O)/C=C/CCC(=O)/C=C/C(=O)OC(CCC(=O)/C=C/C(=O)O)CC(C)=O (stereo unspecified)
Data returned: false

Data request: Next entry: "N#C[C@](CO)(NC(=O)OCc1ccccc1)C(F)F"
Data returned: false

* * *

System: TK-10
Method description: NCI tumour cell line growth inhibition, 48 h
The source made the active and inactive calls. No stated cut-off is given here; in the data, active = GI50 up to about 1.1 µM and inactive = higher.
Hi! Could you answer with just one of these? Yes = active, No = inactive

Example results:
C[Si](C)(C)C(Sc1ccccc1)(Sc1ccccc1)Sc1ccccc1 ... No
CN(C)CC1CC/C(=C\c2ccc3c(c2)OCO3)C1=O (centres undefined) ... No
O=[N+]([O-])c1ccc(-c2ccc([C@H]3CC(c4cc(F)c(Cl)cc4Cl)=NN3)o2)cc1 ... No
Cc1ccc2c(c1)nc1n2C(N)=Nc2ccccc2S1 ... No
N#CCCN(CCC#N)c1ccc(C(Sc2ccccc2)C(NC(=O)c2cc([N+](=O)[O-])ccc2Cl)C(=O)Sc2ccccc2)cc1 (centres undefined) ... No

Data request: Which outcome did this test record for the compound "FC(F)(F)c1ccc2nc(Sc3ccc4ccccc4c3)cnc2c1" ?
Data returned: No

Data request: Next entry: "Cn1cc(NC(=O)Nc2cc(C(=O)Nc3cc(C(=O)Nc4cc(S(=O)(=O)O)c5cc(S(=O)(=O)O)cc(S(=O)(=O)O)c5c4)n(C)c3)n(C)c2)cc1C(=O)Nc1cc(C(=O)Nc2cc(S(=O)(=O)O)c3cc(S(=O)(=O)O)cc(S(=O)(=O)O)c3c2)n(C)c1"
Data returned: No

Data request: Next entry: "CN1CC[N+](C)=C1c1ccccc1"
Data returned: No

Data request: Next entry: COC(=O)c1ccccc1CC1Cc2ccc3c(c2C1=O)CCCC3 (centres undefined)
Data returned: No

Data request: Next entry: "CNC(=S)NC(=S)N(C)C"
Data returned: No

* * *

Assignment: determine reported GI50 for the given molecules.
System: TK-10
Method description: NCI tumour cell line growth inhibition, 48 h
Calls of active or inactive are those of the source. Rule as the data show it: active = GI50 up to about 1.1 µM and inactive = higher.

// each listed molecule needs a value for GI50
1. CCOC(=O)C1N(S(=O)(=O)c2ccc(C)cc2)CCC12C(c1ccc(OC)c(OC)c1)=Nc1ccccc12 (stereo not given)
2. COc1ccc2c(c1)CC1c3c(ccc(OC)c3O)CC2N1C (stereo not given)
3. CCOP(=O)(OCC)C(F)(F)CC1CCCCC1

Data returned:
1: > 100 µM (inactive); 2: 64.4 µM (inactive); 3: > 10 µM (inactive)

// each listed molecule needs a value for GI50
1. COC(=O)C(=O)C(C(=O)C(=O)Nc1cc(Cl)c(Cl)cc1Cl)c1nc2ccc([N+](=O)[O-])cc2nc1O (stereo not given)
2. COc1ccc(/C(=C\c2cc(OC)c(OC)c(OC)c2)C(=O)O)cc1

Data returned:
1: > 100 µM (inactive); 2: 87.9 µM (inactive)
